target_or_system: T1, IL-18Rα/β heterodimer (Fc fused human IL-18Rα mixed with Fc fused human IL-18Rβ) (human, UniProt Q13478 19-329; O95256 20-356, limits assumed)
T1 construct: Alpha and beta Fc fusions were mixed and pre-incubated for 30 min before capture on anti-human IgG; also called alpha/beta heterodimer IL-18 receptor; heterodimeric human IL-18 receptor alpha (CD218a) and IL-18R accessory protein (IL-18RAP/CDw218b); not shown: Fc
T1 sequence (looked up) 1: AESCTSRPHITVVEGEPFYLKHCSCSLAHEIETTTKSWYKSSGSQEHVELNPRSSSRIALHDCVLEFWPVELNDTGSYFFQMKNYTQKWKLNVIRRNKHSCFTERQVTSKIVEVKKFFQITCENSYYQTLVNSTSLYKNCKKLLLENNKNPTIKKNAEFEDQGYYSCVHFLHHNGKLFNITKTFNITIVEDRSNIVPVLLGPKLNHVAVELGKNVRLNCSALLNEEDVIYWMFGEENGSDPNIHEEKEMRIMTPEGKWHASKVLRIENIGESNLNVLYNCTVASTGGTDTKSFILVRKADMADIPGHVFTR
T1 sequence (looked up) 2: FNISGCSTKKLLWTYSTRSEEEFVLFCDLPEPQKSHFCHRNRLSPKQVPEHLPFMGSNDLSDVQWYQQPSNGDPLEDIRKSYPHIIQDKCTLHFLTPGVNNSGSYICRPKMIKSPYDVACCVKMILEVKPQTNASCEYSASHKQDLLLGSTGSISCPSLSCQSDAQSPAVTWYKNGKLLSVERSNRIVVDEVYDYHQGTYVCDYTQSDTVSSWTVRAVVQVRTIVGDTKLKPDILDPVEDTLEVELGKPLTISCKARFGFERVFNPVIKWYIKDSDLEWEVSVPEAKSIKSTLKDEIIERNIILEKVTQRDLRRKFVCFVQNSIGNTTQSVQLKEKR
test_method_notes: SPR, Fc-IL-18Rα/β captured, heterogeneous ligand fit
kon values, listed per item
Quick note: give the figure in M⁻¹ s⁻¹, leave out the unit.

As a guide, the following entries are already answered.
binder="IL-18 variant SEQ ID NO: 57 (E6K, C38S, K53A) (ligand) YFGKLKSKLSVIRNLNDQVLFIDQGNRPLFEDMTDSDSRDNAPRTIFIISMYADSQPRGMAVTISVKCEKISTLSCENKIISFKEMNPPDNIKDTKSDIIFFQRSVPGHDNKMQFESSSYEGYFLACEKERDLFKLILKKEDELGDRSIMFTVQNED" numeric_value=535000
binder="IL-18 variant SEQ ID NO: 61 (E6K, C38A, K53A, C76A) (ligand) YFGKLKSKLSVIRNLNDQVLFIDQGNRPLFEDMTDSDARDNAPRTIFIISMYADSQPRGMAVTISVKCEKISTLSAENKIISFKEMNPPDNIKDTKSDIIFFQRSVPGHDNKMQFESSSYEGYFLACEKERDLFKLILKKEDELGDRSIMFTVQNED" numeric_value=1.09e+06

Exam item: I have this binder here, IL-18 variant SEQ ID NO: 60 (E6K, C38Q, K53A) (ligand) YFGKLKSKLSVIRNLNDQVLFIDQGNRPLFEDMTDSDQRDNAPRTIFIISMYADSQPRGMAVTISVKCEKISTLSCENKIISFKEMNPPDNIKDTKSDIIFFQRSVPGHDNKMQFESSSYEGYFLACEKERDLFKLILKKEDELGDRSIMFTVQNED , and I need its recorded kon.
Marked response: 1.21e+06

Exam item: I have this binder here, IL-18 variant SEQ ID NO: 62 (E6K, C38A, K53A, C127A) (ligand) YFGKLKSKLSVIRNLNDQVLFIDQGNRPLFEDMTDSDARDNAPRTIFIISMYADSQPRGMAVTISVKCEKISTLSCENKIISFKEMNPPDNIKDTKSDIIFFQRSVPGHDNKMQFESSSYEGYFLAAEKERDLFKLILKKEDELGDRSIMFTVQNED , and I need its recorded kon.
Marked response: 1.21e+06

Exam item: I have this binder here, IL-18 variant SEQ ID NO: 62 with 30 kDa PEG (E6K, C38A, K53A, C127A, C68-30kPEG) (ligand, 30 kDa PEG on Cys 68 (C68-30kPEG), also called 62 + PEG) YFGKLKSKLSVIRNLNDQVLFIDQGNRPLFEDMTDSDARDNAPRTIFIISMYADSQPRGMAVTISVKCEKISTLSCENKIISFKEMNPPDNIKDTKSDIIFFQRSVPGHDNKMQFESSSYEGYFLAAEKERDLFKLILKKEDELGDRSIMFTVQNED , and I need its recorded kon.
Marked response: 52300
